Target: full length active recombinant SYK enzyme (Homo sapiens)
Construct: full length active recombinant SYK enzyme (Millipore, Calif.)
Test: Inhibition of Syk tyrosine phosphorylation activity (LANCE TR-FRET kinase assay)
measuredQuantity: IC50

Use these answered entries as a reference point.
NC(=O)c1cc(F)c(N[C@@H]2CCCC[C@@H]2N)nc1Nc1cnc2ccccc2c1; 1 to 10 nM
NC(=O)c1ccc(N[C@@H]2CCCC[C@@H]2N)nc1Nc1cnc2ccncc2c1; 10 to 100 nM
Cn1ccc2cc(Nc3nc(N[C@@H]4CCCC(F)(F)[C@@H]4N)c(F)cc3C(N)=O)ccc21; 10 to 100 nM
NC(=O)c1ccc(N[C@@H]2CCCC[C@@H]2N)nc1Nc1cncc(-n2nccn2)c1; 1 to 10 nM
CCn1ccc2c(Nc3nc(N[C@@H]4CCCC(F)(F)[C@@H]4N)c(F)cc3C(N)=O)cccc21; 10 to 100 nM
CC(C)C[C@@H](Nc1nc(Nc2cnc3ccccc3c2)c(C(N)=O)cc1F)C(N)=O; 10 to 100 nM
NC(=O)c1ccc(N[C@@H]2CCCC[C@@H]2N)nc1Nc1cnc2cc[nH]c2c1; 10 to 100 nM
NC(=O)c1cc(F)c(N[C@@H]2CCOC[C@@H]2N)nc1Nc1cccc(Cl)c1; 1 to 10 nM

The compound listed as `NC(=O)c1cc(F)c(N[C@@H]2CCCC[C@@H]2N)nc1Nc1cncc(F)c1` shows IC50 equal to 1 to 10 nM

The compound listed as `COCCOc1cccc(Nc2nc(N[C@@H]3CCCC[C@@H]3N)c(F)cc2C(N)=O)c1` shows IC50 equal to 1 to 10 nM

The compound listed as `CC[C@@H](Nc1nc(Nc2ccc3nccn3c2)c(C(N)=O)cc1F)C(N)=O` shows IC50 equal to 10 to 100 nM
